test system: Staphylococcus aureus; experiment: Antibacterial activity against Staphylococcus aureus ATCC 29213; assay type: functional
Cut-off 1 µg/mL on MIC: below means 1.0, at or above means 0.0.

{"MOLECULE": "O=C(NN1C(=O)[C@H](Cl)[C@H]1c1ccccc1[N+](=O)[O-])c1cc(-c2ccc(Cl)cc2)n[nH]1 (racemic)", "ASSIGNED_LABEL": 0.0}
{"MOLECULE": "O=C(NN1C(=O)CSC1c1ccccc1Cl)c1cc(-c2ccc(Cl)cc2)n[nH]1 (racemic)", "ASSIGNED_LABEL": 1.0}
{"MOLECULE": "COc1ccc(/C=N/NC(=O)c2cc(-c3ccc(Cl)cc3)n[nH]2)cc1OC", "ASSIGNED_LABEL": 1.0}

State whether 1 µg/mL exceeds MIC recorded for O=C(N/N=C/c1cccc([N+](=O)[O-])c1)c1cc(-c2ccc(Cl)cc2)n[nH]1 .
0.0

MIC under 1 µg/mL? Item: COc1ccc(/C=N/NC(=O)c2cc(-c3ccc(Cl)cc3)n[nH]2)cc1
1.0

# check: MIC < 1 µg/mL for O=C(N/N=C/c1ccccc1Cl)c1cc(-c2ccc(Cl)cc2)n[nH]1
1.0
